Cited source for all entries: paper PMC11675717

# experimentalTarget: human BLVRB (Homo sapiens, UniProt P30043, T164S)
# Construct: pET21
# Sequence (P30043 2-206 T164S): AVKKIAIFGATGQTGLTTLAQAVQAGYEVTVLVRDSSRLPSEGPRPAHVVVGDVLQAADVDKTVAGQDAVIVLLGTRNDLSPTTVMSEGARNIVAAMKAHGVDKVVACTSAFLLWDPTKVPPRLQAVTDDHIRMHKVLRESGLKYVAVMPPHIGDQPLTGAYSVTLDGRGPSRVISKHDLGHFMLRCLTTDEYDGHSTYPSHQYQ
# assaySummary: isothermal titration calorimetry
# Format: binding
# measurementSetup: read-out: Kd (nM) with NADP^+
metricName: Kd (nM)
Value expressed in nM; do not type the unit.

Output measured Kd for this item: NC(=O)c1ccc[n+]([C@@H]2O[C@H](COP(=O)(O)OP(=O)(O)OC[C@H]3O[C@@H](n4cnc5c(N)ncnc54)[C@H](OP(=O)(O)O)[C@@H]3O)[C@@H](O)[C@H]2O)c1 130

###

# experimentalTarget: human BLVRB (Homo sapiens, UniProt P30043, T164S)
# Construct: pET21
# assaySummary: isothermal titration calorimetry
# Assay type: binding
# measurementSetup: read-out: Kd (nM) with NADPH
metricName: Kd (nM)
// units = nM; emit number, no label

Recall and state the measured Kd for NC(=O)C1=CN([C@@H]2O[C@H](COP(=O)(O)OP(=O)(O)OC[C@H]3O[C@@H](n4cnc5c(N)ncnc54)[C@H](OP(=O)(O)O)[C@@H]3O)[C@@H](O)[C@H]2O)C=CC1 . 110
